experiment: RP, Waters ACQUITY Premier BEH C18, 100 × 2.1 mm, 1.7 µm, 40 °C, 0.3 to 0.4 mL/min, estimated dead time 0.73 min; A: water + 0.1% formic acid; B: acetonitrile + 0.1% formic acid; gradient (min/%B) 0/0.5 0.1/0.5 10/80 10.1/99.5 12/0.5 12.1/0.5 14.5/0.5; conditions: stereoisomer not certain
quantity: LC retention time (min)

COc1cc(CNC(=O)CCCCCCC(C)C)ccc1O [DIHYDROCAPSAICIN]: 7.49
O=C(O)CCCC(=O)C(=O)O [OXOADIPATE]: 2.2
O=C(CCc1ccc(O)cc1)c1c(O)cc(O)cc1OC1OC(CO)C(O)C(O)C1O (stereo not given) [PHLORIDZIN]: 5.01

P = CCCCCCC(O)CCCCCCCCCCC(=O)O (stereo not given) [12-HYDROXYSTEARIC ACID]
Q = CC(=O)NC(CC(=O)O)C(=O)O (stereo not given) [N-ACETYLASPARTATE]
Given P and given Q , which shows the smaller recorded LC retention time? Could you answer with the label of the item you picked?
Q
(Q: 1.41 min, P: 8.29 min)
